Reference for the values: PubChem BioAssay (NCI)

tested on: LOX IMVI melanoma; assay: NCI tumour cell line growth inhibition, 48 h
Form field: TGI (one value per entry).

- Compound: "CCCCN(CC)C(=O)C(=O)C1C(=O)Nc2ccccc2S1=O (stereo not given)"
  TGI: "> 100 µM"
- Compound: "O=C(c1ccccc1)c1ccc(-c2ccc(O)cc2)cc1"
  TGI: "28.8 µM"
- Compound: "O=[N+]([O-])c1ccccc1S(=O)c1ccccc1 (stereo not given)"
  TGI: "> 100 µM"
- Compound: "CCCCCCCCCCCCCCCC[N+](C)(C)Cc1ccc(C[N+](C)(C)CCCCCCCCCCCCCCCC)cc1"
  TGI: "6.07 µM"
- Compound: "CC12CC3c4ccccc4CN1C3(c1ccccc1)OC2=O (stereo not given)"
  TGI: "> 100 µM"
- Compound: "COc1ccc(C(=O)C2CC3(CCC2(O)c2ccc(OC)cc2)CC(=O)Nc2ccccc2C3=O)cc1 (stereo not given)"
  TGI: "> 100 µM"
- Compound: "CCCCOC1CC2(c3ccc(OC)cc3)C(=O)c3ccccc3N2O1 (stereo not given)"
  TGI: "> 10 µM"
- Compound: "COc1ccc2c(c1O)-c1c(OC)c(OC)cc3c1[C@H](C2)[N+](C)(C)CC3"
  TGI: "> 100 µM"
- Compound: "C=C1C(=O)O[C@@H]2C[C@]3(C)[C@@H](C[C@H]12)[C@](C)(O)CC[C@@H]3O"
  TGI: "> 100 µM"
- Compound: "O=C(Cc1ccccc1)Oc1ccc2c(-c3ccccc3)c(C(=O)Nc3ccc(Cl)cc3)c(=O)oc2c1"
  TGI: "> 100 µM"

* * *

system: HCC-2998 colon; test: NCI tumour cell line growth inhibition, 48 h
Where a SMILES comes first, the peptide text is derived from it. [ ]: non-standard residue; d: D form. The star is where a group is joined. hSer = N[CH](CCO)C(=O)O; Boc = CC(C)(C)OC(=O)*
Some compounds, each annotated with its measured TGI.

- Compound: "Cc1c(Cl)ccc2c1NC(=O)C2(O)CC(=O)c1ccc(Cl)cc1Cl (centres undefined)"
  TGI: "> 50 µM"
- Compound: "Cn1ncc2c(Nc3ccc(Br)cc3)nc(Nc3ccc(Br)cc3)nc21"
  TGI: "3.98 µM"
- Compound: "COC1=CC(c2ccc[nH]2)=N/C1=C\\c1[nH]c(C)c(C(=O)CCC(=O)Oc2ccc3c(c2)CCC2C3CC[C@]3(C)C(=O)CC[C@@H]23)c1C (some centres undefined)"
  TGI: "> 96.1 µM"
- Compound: "COc1c(C2(c3ccc(F)cc3)SCCCS2)c(=O)c1=O"
  TGI: "> 100 µM"
- Compound: "COCCC(NC(=O)C(CC(C)C)NC(=O)OC(C)(C)C)C(N)=O (stereo not drawn) (Boc-Leu-[hSer](Me)-NH2; configuration not given here)"
  TGI: "> 100 µM"
- Compound: "Fc1cccc(F)c1C1SCC2=Nc3ccccc3CN21 (centres undefined)"
  TGI: "> 100 µM"
- Compound: "COCCNCC(O)Cn1c2ccc(Cl)cc2c2cc(Cl)ccc21 (centres undefined)"
  TGI: "3.45 µM"
- Compound: "CC1(C)CCc2c(cc3c(c2O)CCC(C)(C)O3)O1"
  TGI: "> 100 µM"
- Compound: "c1ccc(COc2ccc(C[P+](c3ccccc3)(c3ccccc3)c3ccccc3)cc2)cc1"
  TGI: "4.81 µM"
